test system: A549-ACE2 infected with SARS-CoV-2; assay: SARS-CoV-2 infection rate relative to DMSO; higher = more infection; conditions: 0.1 µM; 24 h
Recorded SARS-CoV-2 infection rate, one value per entry.

Compound: C=C1CC[C@@H]2[C@](C)(CO)[C@H](O)CC[C@@]2(C)[C@@H]1C/C=C1/C(=O)OC[C@H]1O [andrographolide]
SARS-CoV-2 infection rate, %: 103
--
Compound: Nc1nc(O)c2[nH]nnc2n1 [azaguanine-8]
SARS-CoV-2 infection rate, %: 106
--
Compound: NS(=O)(=O)C#Cc1ccccc1 [pifithrin-mu]
SARS-CoV-2 infection rate, %: 104
--
Compound: CN1CCC(CNc2ccc3ncc(-c4cccc(OC(F)(F)F)c4)n3n2)CC1 [SGI-1776]
SARS-CoV-2 infection rate, %: 94

* * *

test system: Caco-2; assay: cell viability relative to DMSO; higher = less toxic; conditions: 72 h; 10 nM
Recorded cell viability, one value per entry.
Quantity: cell viability (%)

Compound: CCOC1O[C@H]([C@@H](COCc2ccccc2)OCc2ccccc2)[C@H](OCc2ccccc2)[C@H]1O (some centres undefined) [tribenoside]
Quantity: cell viability
Measured Result: 96.2

Compound: O=C1C(O)=C(O)C(=O)C(O)=C1O
Quantity: cell viability
Measured Result: 99.6

Compound: O=C1c2c(O)cc(O)cc2O[C@H](c2ccc(O)c(O)c2)[C@H]1O
Quantity: cell viability
Measured Result: 106

Compound: Cc1ccc2c(N3CCN(CCc4cccc(N5CCNC5=O)c4)CC3)cccc2n1
Quantity: cell viability
Measured Result: 98

Compound: CN1c2c([nH]c(N)nc2=O)NC[C@@H]1CNc1ccc(C(=O)N[C@@H](CCC(=O)O)C(=O)O)cc1
Quantity: cell viability
Measured Result: 90.3

Compound: C/C(=C\C(N)C(=O)O)CP(=O)(O)O (centres undefined)
Quantity: cell viability
Measured Result: 110

Compound: O=c1ncn2nc(Sc3ccc(F)cc3F)ccc2c1-c1c(Cl)cccc1Cl
Quantity: cell viability
Measured Result: 96.5

Compound: CC(C)OC(=O)c1cc2c(OC[C@@H](O)CNC(C)(C)C)cccc2[nH]1
Quantity: cell viability
Measured Result: 93

Compound: C[C@H](Cc1cc2c(c(C(N)=O)c1)N(CCCO)CC2)NCCOc1ccccc1OCC(F)(F)F
Quantity: cell viability
Measured Result: 93.1

* * *

test system: Vero E6; assay: cell viability relative to DMSO; higher = less toxic; details: 72 h; 10000 nM
Counter-ions that a name gives are not always drawn.
Quantity: cell viability (%)

Compound: COc1cc2ncnc(Nc3cccc(Br)c3)c2cc1OC
Measured Result: 49.6
//
Compound: CN1C(=O)N[C@H](Cc2c[nH]c3c(Cl)cccc23)C1=O [necrostatin-2]
Measured Result: 97.8
//
Compound: CN[C@H](CC(=O)O)C(=O)O [NMDA]
Measured Result: 107
//
Compound: CN(c1ncccc1CNc1nc(Nc2ccc3c(c2)CC(=O)N3)ncc1C(F)(F)F)S(C)(=O)=O
Measured Result: 41.5
//
Compound: CCOc1ccc(-n2c([C@@H](C)N(Cc3cccnc3)C(=O)Cc3ccc(OC(F)(F)F)cc3)nc3ncccc3c2=O)cc1 (racemic) [AMG-487-(+/-)]
Measured Result: 102
//
Compound: OC[C@H]1NCC[C@@H](O)[C@@H]1O [fagomine]
Measured Result: 92.7
//
Compound: CC1(C)CCC(C)(C)c2cc(C(=O)Nc3ccc(C(=O)O)cc3)ccc21 [AM-580]
Measured Result: 96.5
//
Compound: Cc1c(C)c2c(c(C)c1O)CCC(C)(C(=O)O)O2 (centres undefined) [trolox]
Measured Result: 77.9
//
Compound: COc1cccc2c1C(=O)c1c(O)c3c(c(O)c1C2=O)C[C@@](O)(C(=O)CO)C[C@@H]3O[C@H]1C[C@H](N)[C@@H](O)[C@H](C)O1 [Epirubicin Hydrochloride]
Measured Result: 34.4
